Origin of the recorded values: paper PMC6986443

assay: Concentrations in rat plasma and brain (IP1 study); format: in vivo; details: Long-Evans, brain (hippocampus), po; rat hippocampus, 30 mg/kg p.o., 2 h; mean ± SD; read-out: Brain concentration
attribute measured: concentration at 2 h (ng/g)

# chemical smiles, display unit, reading
rows = [
    ("Cc1c(Cc2ccc(Cl)nc2)cc2c(c1Cl)OCN([C@H]1CCC[C@@H]1O)C2=O", "ng/g", 1000),
]

---

test: Concentrations in rat plasma and brain (IP1 study); format: in vivo; conditions: Long-Evans, brain/plasma, po; rat, 10 mg/kg p.o.; mean ± SD; read-out: Kp (brain‐to‐plasma concentration ratio)
attribute measured: Kp at 2 h

# compound, reading
data = [
    ("Cc1ccc(Cc2cc3c(=O)n([C@H]4CCCC[C@@H]4O)cnc3c3ccccc23)cn1 [MK‐7622, reference compound]", 0.23),
    ("Cc1c(Cc2ccc(Cl)nc2)cc2c(c1Cl)OCN([C@H]1CCC[C@@H]1O)C2=O", 1),
]
